Recorded protein stability index values for a group of sequences are listed next.
system: Saccharomyces cerevisiae; assay: protein stability index of tFT-peptide fusion (C-terminal peptide) (PSI (0-1 scale)); higher = more stable (slower turnover); conditions: genetic background: wild type; temperature: 30 C;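 note: PSI is a weighted mean of sequencing reads over stability bins, variants kept only with over 10 reads, mCherry proximal and sfGFP distal, peptide attached via GGGS linker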
Give the figure by itself; no unit, no explanation.

| residue_string | property_name | measured |
| --- | --- | --- |
| SPCLSWTLVLVL | protein stability index | 0.203 |
| NNQIQKKMYQTN | protein stability index | 0.198 |

The sequence listed as `GLLLLGIRLKWG` shows protein stability index equal to 0.206

----------
tested on: Saccharomyces cerevisiae; experiment: protein stability index of tFT-peptide fusion (C-terminal peptide) (PSI (0-1 scale)); higher = more stable (slower turnover); settings: genetic background: wild type; temperature: 30 C
property_name: protein stability index

| residue_string | protein stability index |
| --- | --- |
| KPKRIRCDRSPH | 0.694 |
| DQLGARSGELLR | 0.697 |
| FPSLLFSSPSAF | 0.7 |
| CTAPIASWKRVL | 0.694 |

Note to self: protein stability index of `CAPPSSPCLCSI` with Saccharomyces cerevisiae was 0.701

Where do the numbers come from? From the supplement of paper PMC10724198.
